Molecular target: rat nNOS (Rattus norvegicus, UniProt P29476)
Construct: Full-length recombinant rat nNOS, mouse iNOS, bovine eNOS; made in house; host or cells: Escherichia coli
Sequence (P29476 whole entry): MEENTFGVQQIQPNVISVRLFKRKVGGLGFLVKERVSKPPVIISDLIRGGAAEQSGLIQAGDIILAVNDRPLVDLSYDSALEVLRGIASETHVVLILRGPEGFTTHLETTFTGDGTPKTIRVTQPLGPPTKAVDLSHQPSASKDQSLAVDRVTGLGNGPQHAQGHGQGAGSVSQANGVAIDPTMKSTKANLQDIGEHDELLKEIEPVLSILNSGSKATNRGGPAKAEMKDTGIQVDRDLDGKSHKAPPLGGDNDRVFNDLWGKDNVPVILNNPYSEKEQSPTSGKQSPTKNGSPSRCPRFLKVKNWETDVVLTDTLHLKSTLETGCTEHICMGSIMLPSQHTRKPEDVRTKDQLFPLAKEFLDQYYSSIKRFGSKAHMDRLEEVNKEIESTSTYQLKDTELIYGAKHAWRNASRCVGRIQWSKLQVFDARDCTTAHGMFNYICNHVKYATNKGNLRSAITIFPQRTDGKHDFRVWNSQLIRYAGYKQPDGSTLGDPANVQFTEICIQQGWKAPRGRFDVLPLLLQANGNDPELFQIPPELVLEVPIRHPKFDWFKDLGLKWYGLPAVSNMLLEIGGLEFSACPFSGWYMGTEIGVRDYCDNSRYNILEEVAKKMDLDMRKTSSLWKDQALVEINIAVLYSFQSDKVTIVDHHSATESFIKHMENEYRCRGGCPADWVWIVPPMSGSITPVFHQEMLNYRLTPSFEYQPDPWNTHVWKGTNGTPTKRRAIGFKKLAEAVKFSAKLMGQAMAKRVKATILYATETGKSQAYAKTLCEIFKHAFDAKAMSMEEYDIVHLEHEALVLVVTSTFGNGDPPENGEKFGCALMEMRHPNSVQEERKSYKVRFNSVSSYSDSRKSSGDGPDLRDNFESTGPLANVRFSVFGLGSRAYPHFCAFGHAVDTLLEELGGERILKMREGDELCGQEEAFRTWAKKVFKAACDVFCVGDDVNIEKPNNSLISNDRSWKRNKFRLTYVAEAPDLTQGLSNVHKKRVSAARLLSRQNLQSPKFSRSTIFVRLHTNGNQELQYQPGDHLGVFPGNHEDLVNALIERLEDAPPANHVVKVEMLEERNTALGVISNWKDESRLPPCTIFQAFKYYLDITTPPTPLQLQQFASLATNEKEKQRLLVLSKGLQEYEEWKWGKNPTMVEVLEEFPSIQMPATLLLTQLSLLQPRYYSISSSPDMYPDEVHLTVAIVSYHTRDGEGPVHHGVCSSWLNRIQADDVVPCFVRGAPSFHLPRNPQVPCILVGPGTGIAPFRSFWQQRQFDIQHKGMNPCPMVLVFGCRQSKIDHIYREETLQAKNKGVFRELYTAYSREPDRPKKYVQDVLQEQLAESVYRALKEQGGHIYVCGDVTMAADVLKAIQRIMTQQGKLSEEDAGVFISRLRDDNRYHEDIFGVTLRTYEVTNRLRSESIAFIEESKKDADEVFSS
Experiment: NOS inhibition, oxyhemoglobin (hemoglobin capture) test, recombinant nNOS
Format: biochemical
Details: dipeptide-like series; recombinant enzyme, 10 µM arginine, triplicate; NI = <50% inhibition at 100 μM
RECORDED METRIC: IC50 (µM)

P = CCSC(=N)NCCC[C@H](N)C(=O)N[C@@H]1CCCN(Cc2ccccc2[N+](=O)[O-])C1 [Compound 13]
Q = CCSC(=N)NCCC[C@H](N)C(=O)N[C@H]1CCCN(Cc2cccc(-c3cccc([N+](=O)[O-])c3)c2)C1 [Compound 26]
R = CCSC(=N)NCCC[C@H](N)C(=O)N[C@H]1CCCN(Cc2cccc(-c3ccccc3)c2)C1 [Compound 25]
Enquiry: Please order the records by their reported IC50, lowest number first. Answer by listing the labels in the requested order.
Return: Q, R, P

* * *

pKd: −log10 of the molar value.
Observed pKd values for oxygenase domain of nNOS (nNOSoxy) (Rattus norvegicus, UniProt P29476) are listed in what follows.
RECORDED METRIC: pKd

Here is how some compounds turned out for pKd.
CCSC(=N)NCCC[C@H](N)C(=O)N[C@H]1CCCN(Cc2ccc(-c3ccccc3)cc2)C1 [Compound 23] :: 4.94
CCSC(=N)NCCC[C@H](N)C(=O)N[C@H]1CCCN(Cc2ccccc2C(F)(F)F)C1 [Compound 19] :: 5.28
CCSC(=N)N [SEITU, reference compound] :: 5.19

a = CCSC(=N)NCCC[C@H](N)C(=O)N[C@H]1CCCN(Cc2cccc(-c3cccc(C(=O)O)c3)c2)C1 [Compound 27]
b = CCSC(=N)NCCC[C@H](N)C(=O)N[C@H]1CCCN(Cc2ccc(Cl)c(C(F)(F)F)c2)C1 [Compound 17]
c = CCSC(=N)NCCC[C@H](N)C(=O)N[C@H]1CCCN(Cc2ccccc2)C1 [Compound 7]
Enquiry: Rank items: key pKd, increasing. Answer by listing the labels in the requested order.
Return: a, c, b
(a: 4.15, c: 5.15, b: 5.44)

* * *

Target: rat nNOS (Rattus norvegicus)
Construct: Full-length recombinant rat nNOS, mouse iNOS, bovine eNOS; made in house; host or cells: Escherichia coli
Assay: NOS inhibition, oxyhemoglobin (hemoglobin capture) test, recombinant nNOS
Format: biochemical
Settings: dipeptide-like series; recombinant enzyme, 10 µM arginine, triplicate; NI = <50% inhibition at 100 μM
RECORDED METRIC: IC50 (µM)

CCSC(=N)NCCC[C@H](N)C(=O)N[C@H]1CCCN(Cc2cc(O)ccc2O)C1 [Compound 10] :: 2
CCSC(=N)NCCC[C@H](N)C(=O)N[C@H]1CCCN(Cc2ccc3ccccc3c2)C1 [Compound 22] :: 12.7
CCSC(=N)NCCC[C@H](N)C(=O)N[C@@H]1CCCN(Cc2ccccc2)C1 [Compound 8] :: 15.6

I = CCSC(=N)NCCC[C@H](N)C(=O)N[C@H]1CCCN(Cc2cc(O)ccc2[N+](=O)[O-])C1 [Compound 15]
II = CCSC(=N)NCCC[C@H](N)C(=O)N[C@H]1CCCN(Cc2cccc(-c3cccc(C(=O)O)c3)c2)C1 [Compound 27]
Enquiry: Of the two listed items, which has the higher IC50? First: I Second: II Answer = label.
Return: I

* * *

Molecular target: mouse iNOS (Mus musculus)
Construct: Full-length recombinant rat nNOS, mouse iNOS, bovine eNOS; made in house; host or cells: Escherichia coli
Sequence (P29477 whole entry): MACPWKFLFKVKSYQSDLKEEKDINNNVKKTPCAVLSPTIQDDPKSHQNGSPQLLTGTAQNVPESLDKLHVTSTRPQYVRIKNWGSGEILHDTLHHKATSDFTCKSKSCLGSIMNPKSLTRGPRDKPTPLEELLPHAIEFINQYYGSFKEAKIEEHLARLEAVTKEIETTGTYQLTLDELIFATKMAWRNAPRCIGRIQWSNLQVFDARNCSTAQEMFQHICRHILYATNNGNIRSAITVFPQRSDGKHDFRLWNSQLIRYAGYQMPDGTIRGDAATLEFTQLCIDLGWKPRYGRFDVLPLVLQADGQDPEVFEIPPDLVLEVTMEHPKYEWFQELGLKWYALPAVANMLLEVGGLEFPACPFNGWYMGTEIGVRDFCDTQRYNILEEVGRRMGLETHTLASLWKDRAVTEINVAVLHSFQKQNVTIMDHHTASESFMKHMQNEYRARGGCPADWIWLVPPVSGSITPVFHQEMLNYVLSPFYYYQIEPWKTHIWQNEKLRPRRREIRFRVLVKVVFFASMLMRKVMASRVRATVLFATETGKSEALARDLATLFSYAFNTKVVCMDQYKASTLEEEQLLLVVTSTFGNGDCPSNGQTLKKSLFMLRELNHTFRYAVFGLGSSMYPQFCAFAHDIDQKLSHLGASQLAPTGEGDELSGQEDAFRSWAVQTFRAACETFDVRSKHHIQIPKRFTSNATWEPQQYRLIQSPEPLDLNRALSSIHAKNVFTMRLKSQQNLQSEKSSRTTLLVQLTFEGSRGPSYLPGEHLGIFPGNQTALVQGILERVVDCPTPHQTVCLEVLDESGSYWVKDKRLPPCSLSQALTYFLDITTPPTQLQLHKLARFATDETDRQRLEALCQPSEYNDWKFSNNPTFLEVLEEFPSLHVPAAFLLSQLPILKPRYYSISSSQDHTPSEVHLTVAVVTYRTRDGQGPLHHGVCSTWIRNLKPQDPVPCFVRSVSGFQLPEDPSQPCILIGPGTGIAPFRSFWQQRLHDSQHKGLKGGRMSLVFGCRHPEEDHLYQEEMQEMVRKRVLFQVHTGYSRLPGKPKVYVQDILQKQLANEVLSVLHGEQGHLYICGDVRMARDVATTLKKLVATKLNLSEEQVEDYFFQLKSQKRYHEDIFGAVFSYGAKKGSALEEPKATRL
Experiment: NOS inhibition, oxyhemoglobin (hemoglobin capture) test, recombinant iNOS
Assay type: biochemical
Conditions: 1,2,4-oxadiazole series; recombinant enzyme, 20 µM arginine, triplicate; NI = <50% inhibition at 100 μM
RECORDED METRIC: IC50 (µM)

CCSC(=N)NCCC[C@H](N)c1nc(CCN(Cc2c(C)cccc2C)Cc2c(C)cccc2C)no1 :: 71.5
CCSC(=N)NCCC[C@H](N)c1nc(CCNCc2ccccc2)no1 :: 11.1
CCSC(=N)NCCC[C@H](N)c1nc(CCN(Cc2cccc([N+](=O)[O-])c2)Cc2cccc([N+](=O)[O-])c2)no1 :: 15.9
CCSC(=N)NCCC[C@H](N)c1nc(CCN(Cc2cc(O)ccc2[N+](=O)[O-])Cc2cc(O)ccc2[N+](=O)[O-])no1 :: 7

a = CCSC(=N)NCCC[C@H](N)c1nc(CCN(Cc2ccc([N+](=O)[O-])cc2)Cc2ccc([N+](=O)[O-])cc2)no1
b = CCSC(=N)NCCC[C@H](N)c1nc(CCNCc2c(C)cccc2C)no1
c = CCSC(=N)NCCC[C@H](N)c1nc(CCNCc2ccccc2[N+](=O)[O-])no1
Enquiry: Order field: IC50 | Direction: descending (largest first) Answer by listing the labels in the requested order.
Return: b, a, c
(b: 51.6 µM, a: 15.8 µM, c: 8 µM)

* * *

Biological target: rat nNOS (Rattus norvegicus, UniProt P29476)
Construct: Full-length recombinant rat nNOS, mouse iNOS, bovine eNOS; made in house; host or cells: Escherichia coli
Experiment: NOS inhibition, oxyhemoglobin (hemoglobin capture) test, recombinant nNOS
Type: biochemical
Conditions: dipeptide-like series; recombinant enzyme, 10 µM arginine, triplicate; NI = <50% inhibition at 100 μM
RECORDED METRIC: IC50 (µM)

1 = CCSC(=N)NCCC[C@H](N)C(=O)N[C@H]1CCCN(Cc2ccc(Cl)c(C(F)(F)F)c2)C1 [Compound 17]
2 = CCSC(=N)NCCC[C@H](N)C(=O)N[C@H]1CCCN(Cc2cccc(Br)c2)C1 [Compound 21]
3 = CCSC(=N)NCCC[C@H](N)C(=O)N[C@H]1CCCN(Cc2ccccc2)C1 [Compound 7]
Enquiry: Place the items in sequence of falling IC50. Answer by listing the labels in the requested order.
Return: 3, 1, 2
(3: 17.5 µM, 1: 5 µM, 2: 1 µM)
